Assay: soluble on expression in E. coli; label from the status in PepcDB or PDB records
parameter: soluble on expression in E. coli

Reference set (10 entries):
| item sequence | obs value |
| --- | --- |
| MTEAEILRLIRRVSGISQQADEQTTQPDSVTAENYARVVAEVMRRDGIQLNDADMRDIRIRVLEMLAYNRRVELYREKEKITYHWKKPERLRR | not soluble |
| AACKFLRRKCTSDCVFAPYFPPEEPTKFANVHRIFGASNVSKILHEVAPHQREDAVNSLAYEAEARLKDPVYGCVGAISVLQRQVLRLQRELEETNADLMRYAGCLGGETTSAYGGRRG | not soluble |
| GAMSVASLPECVKNFFPTEQLEFSSSITADEKPVLHEVFQKHSCFSQCGEMIDEVSKKHPELGKRLATVLEGNKKRLDGLSPAAVEYAKKLIHMVTTTLCSLTVGKPIDDADAKRLHQEFQSLSSEDQAALRKNNPDIKF | soluble |
| MSDTDYYRELEASEQRLSDSRAANRESIRTVEDKISDEREKHVARMSEKEKKHHENMLRLTNSSAAERKSAEEAHRKSVEQLKEKHKNETEKLETQIKEIKEKGEEDVRKVELQRANLEKQRTEALDIHLETMKELNEKKFEEIRQQRKEQNILNVEEMKALSTRNAIEHETQMGLIDDTQNMILSRESRQSSLTLIGHMMKSIESGDAISSLLQEMKTYCENRDQYSPTDIKIMKNISADIGKHRAKCDFQRQQLISKINLESNADPQVVDGCFEMSMKMKCCVESSDLRSVCTTLPLLAAQQEHARISGIINKIGSLTDNLDAINVEIKTKSIQWSRRITNALTNTTGN | not soluble |
| MNELVDTTEMYLRTIYDLEEEGVTPLRARIAERLDQSGPTVSQTVSRMERDGLLRVAGDRHLELTEKGRALAIAVMRKHRLAERLLVDVIGLPWEEVHAEACRWEHVMSEDVERRLVKVLNNPTTSPFGNPIPGLDELGVGPEPGADDANLVRLTELPAGSPVAVVVRQLTEHVQGDIDLITRLKDAGVVPNARVTVETTPGGGVTIVIPGHENVTLPHEMAHAVKVEKV | soluble |
| MGSDKIHHHHHHMGSGSVIWRLLPPAQGDPTTELAAGAAMLAGLKETNCPAIRWYAAGSRPALVIGSGQKLSDVDHTALRQQGVTLHRRSSGGTAVLFVPGLLMQDIALPLDHPLYHPDVSESYRWLGDVWQATLAQFGIHTSLIDIAAARADRQTLDPLIARACFGGQSPYEVLVAGRKLVGFAQIRRREGVLFQVGLYTHWPGRQLATLLAMNEAERTIFGERLADRVTDLVTVCESPPDIHQIAAAFAMVLRQRYEVSITAADWTEAEREAMIAAQARFAPLRLEG | not soluble |
| MSLSDGAVVRALVLEAPRRLVVRQYRLPRIGDDDALVRVEACGLCGTDHEQYTGELAGGFAFVPGHETVGTIAAIGPRAEQRWGVSAGDRVAVEVFQSCRQCANCRGGEYRRCVRHGLADMYGFIPVDREPGLWGGYAEYQYLAPDSMVLRVAGDLSPEVATLFNPLGAGIRWGVTIPETKPGDVVAVLGPGIRGLCAAAAAKGAGAGFVMVTGLGPRDADRLALAAQFGADLAVDVAIDDPVAALTEQTGGLADVVVDVTAKAPAAFAQAIALARPAGTVVVAGTRGVGSGAPGFSPDVVVFKELRVLGALGVDATAYRAALDLLVSGRYPFASLPRRCVRLEGAEDLLATMAGERDGVPPIHGVLTEGHHHHHH | not soluble |
| MGHHHHHHSHMTGRLDELEKAITTQNCNTKCVTIPSTCSEIWGLSTPNTIDQWDTTGLYSFSEQTRSLDGRLQVSHRKGLPHVIYCRLWRWPDLHSHHELKAIENCEYAFNLKKDEVCVNPYHYQRVETPVLPPVLVPRHTEILTELPPLDDYTHSIPE | soluble |
| GQSGPLPKPSLQALPSSLVPLEKPVTLRCQGPPGVDLYRLEKLSSSRYQDQAVLFIPAMKRSLAGRYRCSYQNGSLWSLPSDQLELVATGVFAKPSLSAQPGPAVSSGGDVTLQCQTRYGFDQFALYKEGDPAPYKNPERWYRASFPIITVTAAHSGTYRCYSFSSRDPYLWSAPSDPLELVVT | soluble |
| MSLKGRPIKEFSLVMDLSQAKKGADKMGYMEDLRKRVGTRPLILPASVVIILNEQDEILLQKRLDGRWGLPGGLMELGESFEETAKREILEETGLTIKNVTFLDVFSGKDLYVKVENGDEFYAVTALFMTREVAGGIQMDPRESLDLQYIALDQFPPNVTRTSKIFLDRFMELKEGHHHHHH | soluble |

Asked: Entry "MSLGDQKPATIYAPTVRVTPNPAWPQVSWQLLVAKPSAARIIDSPRINVRPTPGELQVYHGAGWAQPATDMLEDSVVRAFEDSGKIAAVARIGAGIRSDYKLAIDVRRFESDYAGQSLPAATIELNAKLLHSSDQRVVASRTFTVARPSSSTDTAAVAAAFEQALTQVTTELVGWTLITGQQDSQTLPRALEGHHHHHH" has what soluble on expression in E. coli?
Given back: soluble

Asked: Moving on to "MSSNQYIQSLELTNFTVLPNDTFEFSENLNVIVAENGCGKTHLLKILYSLLEVTSNTKNRLLKTELQKSFADKLLNVFRPDSLGRLSKRLQGRGRTEIVLKLQNGTTHSSLNFSSNSSSQVNVQSIGLKENEYTPTPIFLPSRELITLCPWFTSLYQNQSIPFEETWFDTCMQLNHPLAKGPRETKIRELLEPIENAMGGKVSEEQGRFYLSLTNTGGKIEAPLVAEGLRKFVMIARLIATGALLDKGYLFWDEPEANLNPKLIKVAARIIWSLSQQGIQVFIATHSLFLLRELELLKLENNTDLPVRFFSLIASDDGTKVEQGNSINDLNTLILLDENIMQADRYLNI"
Given back: not soluble

Asked: Moving on to "MTYEAGCGLIKALEDPDNRVRQRAVKTLGKRGNPDVLEDLMEALKDSRQPVQEAASEALRKIIAASDSVPVLVKALDATDRNVRKAAIEALWKAGTPEAIPPLLRELDDADWYLRSRAADALADIASPEAALGLIKVMDIHDSPVKKIIVNALGKIGTVEAVEGLVKALEDLEHHHHHH"
Given back: not soluble

Asked: Moving on to "MSLNELPEFEDYVVLTQQQNQNYKIVQQFNNFDKAILLGTSTFFEGFDFQANGIKCVMIAKLPFMNKHNAKYWLMDSEFTSTFKEYVLPDAVTRFRQGLGRLIRNENDRGIIVSFDDRLINSNYKNFFEQTLENYRQKKGDIQQFGKLLRQIQKEGHHHHHH"
Given back: not soluble
